- assay_overview: in vitro
- condition_notes: human, HeLa CC50
measurement_type: CC50 at 72 h (µM)

                                   compound  measurement_type  qual  observed_result
0  COC(=O)CCC(C)C1CCC2C3CCC4CC(O)(CSc5nc6cc(C)ccc6[nH]5)CCC4(C)C3CC(O)C12C (stereo not shown)      CC50 at 72 h     =               50
1  COC(=O)CCC(C)C1CCC2C3CCC4CC(O)(CSc5nc6ccccc6s5)CCC4(C)C3CC(O)C12C (stereo not shown)      CC50 at 72 h     >               75
2  CC(CCC(=O)O)C1CCC2C3CCC4CC(O)(CSc5nc6ccccc6s5)CCC4(C)C3CC(O)C12C (stereo not shown)      CC50 at 72 h     =               75
3  Cc1ccc2[nH]c(SCC3(O)CCC4(C)C(CCC5C4CC(O)C4(C)C(C(C)CCC(=O)O)CCC54)C3)nc2c1 (stereo not shown)      CC50 at 72 h     =               63

====

- tested_system: TDP2 (Homo sapiens, UniProt O95551)
- Sequence (O95551 whole entry): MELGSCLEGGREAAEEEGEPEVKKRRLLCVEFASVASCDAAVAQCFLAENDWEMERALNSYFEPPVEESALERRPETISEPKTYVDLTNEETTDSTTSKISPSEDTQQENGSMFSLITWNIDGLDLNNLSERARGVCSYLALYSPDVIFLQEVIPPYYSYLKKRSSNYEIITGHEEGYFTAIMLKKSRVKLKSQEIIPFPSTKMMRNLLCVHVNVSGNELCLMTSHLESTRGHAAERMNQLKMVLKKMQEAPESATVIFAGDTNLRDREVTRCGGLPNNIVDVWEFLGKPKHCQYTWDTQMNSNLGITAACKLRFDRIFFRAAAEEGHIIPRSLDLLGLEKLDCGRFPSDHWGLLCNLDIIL
- assay_overview: Gel-based TDP2 activity assay (removal of 5'-tyrosine, PAGE)
- Type: biochemical
- condition_notes: at 500 µM compound; read-out: TDP2, % (residual activity of TDP2)
measurement_type: remaining activity at 500 µM

                                   compound              measurement_type  observed_result
0  Cc1ccc2[nH]c(SCC3(O)CCC4(C)C(CCC5C4CC(O)C4(C)C(C(C)CCC(=O)O)CCC54)C3)nc2c1 (centres unmarked)  remaining activity at 500 µM             ~25%
1  CC(CCC(=O)O)C1CCC2C3CCC4CC(O)(CSc5nc6ccccc6s5)CCC4(C)C3CC(O)C12C (centres unmarked)  remaining activity at 500 µM              ~2%
2  COC(=O)CCC(C)C1CCC2C3CCC4CC(O)(CSc5nc6ccccc6s5)CCC4(C)C3CC(O)C12C (centres unmarked)  remaining activity at 500 µM             ~49%
3  COC(=O)CCC(C)C1CCC2C3CCC4CC(O)(CSc5nc6cc(C)ccc6[nH]5)CCC4(C)C3CC(O)C12C (centres unmarked)  remaining activity at 500 µM             ~14%
4  COC(=O)CCC(C)C1CCC2C3CCC4CC(O)(CSc5nc6ccccc6o5)CCC4(C)C3CC(O)C12C (centres unmarked)  remaining activity at 500 µM           ≥ 100%
5  CC(CCC(=O)O)C1CCC2C3CCC4CC(O)(CSc5nccn5C)CCC4(C)C3CC(O)C12C (centres unmarked)  remaining activity at 500 µM           ≥ 100%
6  CC(CCC(=O)O)C1CCC2C3CCC4CC(O)(CSc5ccncc5)CCC4(C)C3CC(O)C12C (centres unmarked)  remaining activity at 500 µM              92%
7  CC(CCC(=O)O)C1CCC2C3CCC4CC(O)(CSc5nc[nH]n5)CCC4(C)C3CC(O)C12C (centres unmarked)  remaining activity at 500 µM           ≥ 100%
